- Experimental target: Atrial natriuretic peptide receptor 1 (Homo sapiens) (UniProt P16066)
- Sequence (P16066 whole entry, looked up): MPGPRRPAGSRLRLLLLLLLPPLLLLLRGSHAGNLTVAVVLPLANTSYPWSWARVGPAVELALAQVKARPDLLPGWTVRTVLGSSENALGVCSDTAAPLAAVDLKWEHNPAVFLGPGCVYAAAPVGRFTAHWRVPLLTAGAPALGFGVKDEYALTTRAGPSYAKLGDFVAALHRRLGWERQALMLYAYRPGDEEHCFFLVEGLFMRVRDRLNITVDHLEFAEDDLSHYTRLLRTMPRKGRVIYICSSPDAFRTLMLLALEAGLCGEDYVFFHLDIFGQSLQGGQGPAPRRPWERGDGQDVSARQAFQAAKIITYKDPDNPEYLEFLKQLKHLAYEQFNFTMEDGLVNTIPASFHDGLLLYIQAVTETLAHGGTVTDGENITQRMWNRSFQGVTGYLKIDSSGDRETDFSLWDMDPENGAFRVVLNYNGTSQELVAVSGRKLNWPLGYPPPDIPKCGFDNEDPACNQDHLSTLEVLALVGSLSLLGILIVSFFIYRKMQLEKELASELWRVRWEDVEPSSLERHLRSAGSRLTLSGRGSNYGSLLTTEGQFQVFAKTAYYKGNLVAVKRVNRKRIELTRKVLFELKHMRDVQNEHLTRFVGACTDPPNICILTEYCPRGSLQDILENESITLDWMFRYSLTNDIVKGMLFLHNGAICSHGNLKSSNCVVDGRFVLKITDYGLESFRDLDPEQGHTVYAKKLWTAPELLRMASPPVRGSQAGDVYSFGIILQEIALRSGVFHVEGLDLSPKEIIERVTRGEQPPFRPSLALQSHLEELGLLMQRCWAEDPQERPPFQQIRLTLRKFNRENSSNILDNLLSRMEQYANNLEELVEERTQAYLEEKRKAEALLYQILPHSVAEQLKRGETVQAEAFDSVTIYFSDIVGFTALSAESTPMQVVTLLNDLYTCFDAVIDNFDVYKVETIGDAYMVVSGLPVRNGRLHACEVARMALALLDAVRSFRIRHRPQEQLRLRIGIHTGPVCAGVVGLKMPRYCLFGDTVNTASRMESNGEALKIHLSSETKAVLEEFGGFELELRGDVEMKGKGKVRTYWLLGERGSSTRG
- Assay overview: Natriuretic polypeptide receptor (hNpr1) antagonism - Confirmation; further: nearly all actives have a fitted effect of over 70% in size
- Reported conditions: HEK293 hNpr1 cGMP GloSensor luminescence, ANP-stimulated; series mostly up to 57.6 µM
In all, about 1,400 compounds went through this assay and about 1,100 (79%) were called active. Not shown: some 20% with an inconclusive outcome. The call rests on the fitted dose curve. The set was probably picked from earlier hits. Only a sample is shown.
Just give me one of these, please: YES for active, NO for inactive

## Input In this assay, the call recorded for COC(=O)c1cccc(NC(=O)CCNc2c(C)nc3cnccn23)c1 was what?
## Output YES

## Input In this assay, the call recorded for Cc1ccc(C(=O)N2CCN(c3cc(-c4ccc(Cl)cc4)[nH]n3)CC2)c(C)c1 was what?
## Output YES

* * *

- Experimental target: Atrial natriuretic peptide receptor 1 (Homo sapiens) (UniProt P16066)
- Assay overview: Natriuretic polypeptide receptor (hNpr1) antagonism - Confirmation; further: nearly all actives have a fitted effect of over 70% in size
- Reported conditions: HEK293 hNpr1 cGMP GloSensor luminescence, ANP-stimulated; series mostly up to 57.6 µM
- Protocol: […] PROTOCOL TABLES (as described by Inglese J, Shamu CE and Guy RK. 2007) SEQUENCE No. (e.g., 1, 2, 3, etc.); PARAMETER (e.g., Cells, Incubation, Reagent, etc.); VALUE and DESCRIPTION. […] GloSensor baseline pre-read luminescence measured using CCD-based camera (Viewlux). […] GloSensor post-hNppA luminescence measured using CCD-based camera (Viewlux). […] Cells counted with Invitrogen Countess (30,000,000 - 50,000,000 cells/flask). […]
Among all 1,400 compounds or so, about 1,100 (79%) were called active. Not shown: some 20% with an inconclusive outcome. Calls come from the whole dose curve. So high a share suggests a set chosen from earlier hits. Only a sample is shown.
Just give me one of these, please: active, inactive

Sample answers from the record:
{"Compound": "COc1ccc(OCC2(C)COc3ccc(C(=O)Nc4cccnc4)cc3N2)cc1 (centres undefined)", "Label class": "active"}
{"Compound": "COc1cccc(C2C(C(=O)Nc3ccccc3)=C(C)N=C3SC=C(CC(=O)NCC(C)C)N32)c1 (centres undefined)", "Label class": "inactive"}
{"Compound": "COc1ccc(CCNC(=O)c2noc(-c3ccc(C)cc3)n2)cc1OC", "Label class": "active"}

Consider the record given below.
## Input In this assay, the call recorded for CC1(C(=O)NCc2ccc3c(c2)OCO3)CCc2cnc(NCc3ccccc3)nc21 (centres undefined) was what?
## Output active

* * *

- Experimental target: Atrial natriuretic peptide receptor 1 (Homo sapiens)
- Assay overview: Natriuretic polypeptide receptor (hNpr1) antagonism - Confirmation; further: nearly all actives have a fitted effect of over 70% in size
- Reported conditions: HEK293 hNpr1 cGMP GloSensor luminescence, ANP-stimulated; series mostly up to 57.6 µM
The campaign covered roughly 1,400 compounds. About 1,100 (79%) were called active. Not shown: some 20% with an inconclusive outcome. The call rests on the fitted dose curve. The set was probably picked from earlier hits. The list is a sample of the results.
Just give me one of these, please: active, inactive

Sample answers from the record:
{"Molecule": "Cc1ccc2c(c1)nc1n2[C@@H](CNS(=O)(=O)c2ccccc2)COC1", "Label class": "active"}
{"Molecule": "Cc1cc(CNC(=O)c2ccc(-c3ccccc3Cl)o2)n(C)n1", "Label class": "active"}
{"Molecule": "O=C(c1ccccc1)N1CCNc2cnc(Nc3cccc(C(F)(F)F)c3)nc2C1", "Label class": "active"}
{"Molecule": "O=C(c1ccc(F)cc1F)N1CCN(c2cc(-c3ccc(Cl)cc3)[nH]n2)CC1", "Label class": "active"}

## Input In this assay, the call recorded for COc1ccc(CN2C(=O)CO[C@H]3CN(Cc4ccc5c(c4)OCO5)C[C@H]32)cc1 was what?
## Output active

## Input In this assay, the call recorded for O=C(c1ccc(F)cc1Cl)N1CCC(n2cc(-c3nc(-c4ccccc4)no3)nn2)C1 (centres undefined) was what?
## Output active

## Input In this assay, the call recorded for Cc1nc(-c2ccncc2)ncc1C(C)Nc1ncnc(C)c1C (centres undefined) was what?
## Output active

## Input In this assay, the call recorded for CC(C)c1noc(-c2cn(C3CCN(C(=O)c4ccc(N(C)C)cc4)C3)nn2)n1 (centres undefined) was what?
## Output active

## Input In this assay, the call recorded for COc1ccc(CC(=O)N2CCC(Cc3nc(-c4ccccc4)no3)CC2)cc1OC was what?
## Output active
